- Assay Remarks: Single dose PK in healthy subjects (Cohorts 1, 2, S1 and S2), plasma
- Assay type: in vivo, human
- Measurement Conditions: human, plasma, intravenous, 14 mg; 8 hr; read-out: Plasma concentration, Median
Measured Attribute: concentration at 8 h (ng/mL)
Give just the numeric value; ng/mL need not be written.

Would you kindly share the measured concentration at 8 h for COC(=O)N1CCC[C@H](NS(C)(=O)=O)[C@@H]1CO[C@H]1CC[C@@H](c2ccccc2)CC1 [Compound A] ?
29.9

---

- Assay Remarks: Single dose PK in healthy subjects (Cohorts 1, 2, S1 and S2), plasma
- Format: in vivo, human
- Measurement Conditions: human, plasma, intravenous, 7 mg; 0.33 hr After End of Infusion; read-out: Plasma concentration, Q3
Measured Attribute: concentration at 0.33 h after end of infusion (ng/mL)
Give just the numeric value; ng/mL need not be written.

Would you kindly share the measured concentration at 0.33 h after end of infusion for COC(=O)N1CCC[C@H](NS(C)(=O)=O)[C@@H]1CO[C@H]1CC[C@@H](c2ccccc2)CC1 [Compound A] ?
7.26
